Each entry below lists one item and its recorded self-cleavage value.
B1: Twister Ribozyme (parent)
chain: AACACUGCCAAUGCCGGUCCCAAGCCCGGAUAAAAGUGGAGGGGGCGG

- Variants of: B1
- PROCEDURE DETAILS: self-cleavage, relative activity (ratio to wild type); higher = more cleavage; co-transcriptional
READOUT TYPE: self-cleavage

1. A22C A23C ... 0.148
2. C20A G36U ... 0.0906
3. A1U A34U ... 0.0731
4. A35G C46A ... 0.747
5. A35G G39U ... 0.18
6. G38U G45U ... 0.707
7. G29A G38A ... 0.772
8. A1C U37C ... 0.174
9. C21A G29A ... 0.132

Values compiled from the RNAGym collection of RNA variant scans (doi:10.7554/elife.80360).
